Reference source for all entries: PubChem BioAssay

# Target system: Alpha-2C adrenergic receptor (Homo sapiens)
# Assay name: modulators of alpha2C/GIRK thallium flux, primary screen, cell-based, HEK293 alpha2C/GIRK1/2 (AID 624);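 further: slope of fluorescence ratio to pre-addition baseline per second over 15 to 24 s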
# Stated conditions: thallium flux BTC fluorescence, at 10 µM, actives lie on both sides
Metric name: slope
API doc: respond with a numeric literal and nothing else, no unit.

Molecule | Numeric value
O=C(Nc1cccc(O)c1)c1ccccc1 | 0.00606
c1ccc2c(c1)c1c3n2CCNC3CCC1 (stereo unspecified) | 0.00436
Cc1ccccc1Cn1cc(/C=N/n2cnnc2)c2ccccc21 | 0.00391

Query: Name the recorded slope of the item CCOc1ccc(NC(=O)C(C)Sc2nnc(C)n2C)cc1 (stereo unspecified) in your answer.
Result: 0.00656

Query: Name the recorded slope of the item CCOc1cc(C(=O)Nc2c3c(nn2C(C)(C)C)CS(=O)C3)cc(OCC)c1OCC (stereo unspecified) in your answer.
Result: 0.00616

Query: Name the recorded slope of the item O=C1CCCN1Cc1ncnn1-c1ccccc1 in your answer.
Result: 0.00512

Query: Name the recorded slope of the item Cc1cc(C)nc(SCC(=O)Nc2ncc3c(n2)CCCC3=O)n1 in your answer.
Result: 0.00766

Query: Name the recorded slope of the item Cc1ccc2cc3cc(C(=O)NCCN4CCOCC4)oc3nc2c1 in your answer.
Result: 0.00283

Query: Name the recorded slope of the item Nc1nnnn1NCc1cccc(OCc2ccccc2)c1 in your answer.
Result: 0.00425

Query: Name the recorded slope of the item COc1ccc(NC(=O)CCS(=O)(=O)c2ccc(OC)cc2)cc1 in your answer.
Result: 0.00539

Query: Name the recorded slope of the item CCOC(=O)C1CCN(c2c(NCCN3CCN(c4ccccc4)CC3)c(=O)c2=O)CC1 in your answer.
Result: 0.00543

Query: Name the recorded slope of the item c1ccc2c(c1)CNC1(CCCCC1)C2 in your answer.
Result: 0.00453

Query: Name the recorded slope of the item CCC(C)NC(=O)C1c2cc(OC)c(OC)cc2C(=O)N(C)C1c1ccc(OC)cc1 (stereo unspecified) in your answer.
Result: 0.00537

----------
# Assay name: inhibitors of TNFa-induced NFkB p65 translocation, primary screen, imaging, HUVEC, MLSMR starter and 10KST1 sets (AID 438);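 further: compound added about 3h40 before a 20 min TNFalpha stimulation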
# Stated conditions: HUVEC TNFa-induced p65 nuclear translocation; measured here: nuclei count (cytotoxicity indicator), at 2.08 µM
Metric name: cell count

Query: Name the recorded cell count of the item CC(=O)N1CCN(C(=O)COc2ccc(Br)cc2)CC1 in your answer.
Result: 518

Query: Name the recorded cell count of the item CC(=O)Nc1ccc(OCC(O)CN2CCN(c3cccc(Cl)c3)CC2)cc1 (stereo not given) in your answer.
Result: 469

Query: Name the recorded cell count of the item CCSc1nnc2c(n1)OC=Nc1ccc(Br)cc1-2 in your answer.
Result: 262

Query: Name the recorded cell count of the item CCOC(=O)C(CCc1nnc(N)s1)C(=O)OCC in your answer.
Result: 710

Query: Name the recorded cell count of the item COc1cccc(C=NCCNC(=O)c2nonc2N)c1O in your answer.
Result: 517

Query: Name the recorded cell count of the item CCOC(=O)N1CCC(Nc2nc3ccccc3n3cnnc23)CC1 in your answer.
Result: 501

Query: Name the recorded cell count of the item COC(=O)C(C)Sc1nc2c(c(=O)n(C)c(=O)n2C)n1CCC(C)C (stereo not given) in your answer.
Result: 630

Query: Name the recorded cell count of the item Cc1noc(C)c1S(=O)(=O)N1CCCC(C(=O)NCCc2ccc(Cl)cc2)C1 (stereo not given) in your answer.
Result: 402

Query: Name the recorded cell count of the item CN(C)CCCN(CCCNC(=O)/C=N/O)Cc1ccccc1 in your answer.
Result: 652

Query: Name the recorded cell count of the item CCCCCOc1ccc(C2NC(=O)NC2=O)cc1 (stereo not given) in your answer.
Result: 804

Query: Name the recorded cell count of the item O=C(NCCC1=CCCCC1)C1CCN(C(=O)Nc2ccccc2)CC1 in your answer.
Result: 206

Query: Name the recorded cell count of the item C(=C\c1ccccc1)/CN1CCN(Cc2ccc3c(c2)OCCO3)CC1 in your answer.
Result: 435

Query: Name the recorded cell count of the item O=C(NCc1nc2ccccc2[nH]1)c1ccc(Cl)c(S(=O)(=O)N2CCCC2)c1 in your answer.
Result: 594

Query: Name the recorded cell count of the item COc1ccc(C2Nc3ccccc3C(=O)N2Cc2ccco2)cc1CN1C(=O)c2ccccc2C1=O (stereo not given) in your answer.
Result: 691

Query: Name the recorded cell count of the item CCOC(=O)C(C)Sc1nc(-c2cccs2)ccc1C#N (stereo not given) in your answer.
Result: 657
